Target: HDAC1 enzyme (recombinant GST-HDAC1) (Homo sapiens (Human))
Sequence (Q13547 whole entry): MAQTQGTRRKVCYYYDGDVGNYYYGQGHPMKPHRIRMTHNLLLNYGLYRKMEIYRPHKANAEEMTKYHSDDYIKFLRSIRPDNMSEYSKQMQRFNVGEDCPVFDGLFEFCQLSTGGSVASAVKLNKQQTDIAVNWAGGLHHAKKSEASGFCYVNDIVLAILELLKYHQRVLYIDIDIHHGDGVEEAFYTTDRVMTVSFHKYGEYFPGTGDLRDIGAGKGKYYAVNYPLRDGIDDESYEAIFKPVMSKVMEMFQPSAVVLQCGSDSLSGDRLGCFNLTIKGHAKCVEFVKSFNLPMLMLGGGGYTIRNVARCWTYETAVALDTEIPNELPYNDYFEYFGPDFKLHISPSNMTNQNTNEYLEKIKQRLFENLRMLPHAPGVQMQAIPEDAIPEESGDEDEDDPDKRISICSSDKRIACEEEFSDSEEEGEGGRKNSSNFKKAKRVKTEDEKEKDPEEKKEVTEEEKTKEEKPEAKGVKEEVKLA
Assay: In vitro HDAC assay (BIOMOL fluorescent-based HDAC activity assay), HDAC1
Format: biochemical
Details: Salt of HCl; read-out: IC50 (HDAC1)
Measure: pIC50
Here pIC50 is given on a logarithmic scale as minus log10 of the concentration in mol/L.

Prompt: Fill in the blank: the reported pIC50 of CN(C)CC(C)(C)Cn1c(CCc2ccccc2)nc2cc(/C=C/C(=O)NO)ccc21 is ____.
Response: 7.36

###

Reported pIC50 values are given for each entry in this list.
Target: HDAC8 enzyme (recombinant GST-HDAC8) (Homo sapiens (Human), UniProt Q9BY41)
Sequence (Q9BY41 whole entry): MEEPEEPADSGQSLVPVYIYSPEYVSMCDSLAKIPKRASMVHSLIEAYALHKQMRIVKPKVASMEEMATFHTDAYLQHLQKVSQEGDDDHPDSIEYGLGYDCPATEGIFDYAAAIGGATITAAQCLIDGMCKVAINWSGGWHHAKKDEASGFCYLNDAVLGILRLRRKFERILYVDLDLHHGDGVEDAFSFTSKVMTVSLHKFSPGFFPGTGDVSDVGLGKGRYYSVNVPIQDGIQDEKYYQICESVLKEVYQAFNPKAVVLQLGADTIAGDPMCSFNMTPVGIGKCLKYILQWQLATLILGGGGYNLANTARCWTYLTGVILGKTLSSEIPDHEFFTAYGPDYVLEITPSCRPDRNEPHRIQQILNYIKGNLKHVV
Assay: In vitro HDAC assay (BIOMOL fluorescent-based HDAC activity assay), HDAC8
Format: biochemical
Details: read-out: HDAC8 Enzyme Activity IC50
Here pIC50 is given on a logarithmic scale as minus log10 of the concentration in mol/L.

In [3]: df
Out[3]:
                                   compound  measure  recorded_value
0  O=C(/C=C/c1ccc2c(c1)nc(-c1ccncc1)n2CCO)NO    pIC50            6.05
1  O=C(/C=C/c1ccc2c(c1)nc(CCc1ccccc1)n2Cc1ccccn1)NO    pIC50            6.44
2        CC(C)Cc1nc2cc(CCC(=O)NO)ccc2n1CCCO    pIC50            4.47

Prompt: Fill in the blank: the reported pIC50 of CC(C)Cc1nc2cc(/C=C/C(=O)NO)ccc2n1CCCO is ____.
Response: 6.62

Prompt: Fill in the blank: the reported pIC50 of O=C(/C=C/c1ccc2c(c1)nc(-c1ccncc1)n2CCCO)NO is ____.
Response: 6.79

Prompt: Fill in the blank: the reported pIC50 of CCN(CC)CCn1c(CCc2ccccc2)nc2cc(/C=C/C(=O)NO)ccc21 is ____.
Response: 6.59
